Provenance of the data: patent US20150191469A1

system: HIV; test: MT4 assay: antiviral HIV activity (cell protection, cell titer glo readout at 96 hours); format: cell-based; settings: Human immunodeficiency virus 1, MT4, 96 h, MT4 cells, cell titer glo readout at 96 hours, 10 point dose response; read-out: HIV MT4 Assay IC50
MEASURED_PARAMETER: IC50 (nM)
Quick note: give the figure in nM, leave out the unit.

The examples below pair each entry with its known result.
MOLECULE | IC50, nM
COCCN1CCCN(c2cc(-c3cc4c(-c5cc(F)c6c(c5C)CCCO6)c([C@H](OC(C)(C)C)C(=O)O)c(C)nc4n3C)ccn2)CC1 (atropisomer, axis not shown) [Example 103] | 45
Cc1nc2c(cc(-c3ccnc(-c4ccc5c(cnn5C)c4)c3)n2C)c(C2=CCCCC2)c1[C@H](OC(C)(C)C)C(=O)O [Example 425] | 34.5
Cc1nc2c(cc(CCc3ccc4cnn(C)c4c3)n2C)c(-c2cc(F)c3c(c2C)CCCO3)c1[C@H](OC(C)(C)C)C(=O)O [Example 286] | 15
Cc1nc2c(cc(C(=O)N3CC(c4ccccc4)C3)n2C)c(-c2cc(F)c3c(c2C)CCCO3)c1[C@H](OC(C)(C)C)C(=O)O [Example 194] | 1.5
Cc1nc2c(cc(CNC(=O)N3CCCN(C4COC4)CC3)n2C)c(-c2cc(F)c3c(c2C)CCCO3)c1[C@H](OC(C)(C)C)C(=O)O [Example 168] | 12600
Cc1nc2c(cc(-c3nnc(N4CCC(F)CC4)o3)n2C)c(-c2cc(F)c3c(c2C)CCCO3)c1[C@H](OC(C)(C)C)C(=O)O [Example 346] | 2.7

Data request: IC50 lookup needed for Cc1nc2c(cc(-c3nnc(N4CC5CCC(C4)O5)o3)n2C)c(-c2cc(F)c3c(c2C)CCCO3)c1[C@H](OC(C)(C)C)C(=O)O [Example 353] , thanks.
Data returned: 7

Data request: Again, but for Cc1nc2c(cc(-c3ccnc(N4CCN(c5ncccn5)CC4)c3)n2C)c(-c2cc(F)c3c(c2C)CCCO3)c1[C@H](OC(C)(C)C)C(=O)O (atropisomer, axis not shown) [Example 93]
Data returned: 23.9

Data request: Again, but for Cc1nc2c(cc(-c3ccnc(N4CCc5cc(-n6c(C)ccc6C)ccc5C4)c3)n2C)c(-c2cc(F)c3c(c2C)CCCO3)c1[C@H](OC(C)(C)C)C(=O)O (atropisomer, axis not shown) [Example 106]
Data returned: 45

* * *

test system: HIV; test: MT4 assay: antiviral HIV activity (cell protection, cell titer glo readout at 96 hours); format: cell-based; conditions: Human immunodeficiency virus 1, MT4, 96 h, MT4 cells, cell titer glo readout at 96 hours, 10 point dose response; read-out: HIV MT4 Assay IC50
Recorded IC50 values for a group of compounds are listed next.
Quick note: give the figure in nM, leave out the unit.

The examples below pair each entry with its known result.
COMPOUND | MEASUREMENT
Cc1nc2c(cc(C(=O)NCC3COC3)n2C)c(-c2cc(F)c3c(c2C)CCCO3)c1[C@H](OC(C)(C)C)C(=O)O | 454
Cc1nc2c(cc(C(=O)NCCN3CCOCC3)n2C)c(-c2cc(F)c3c(c2C)CCCO3)c1[C@H](OC(C)(C)C)C(=O)O | 370
Cc1nc2c(cc(-c3nnc(N4CC5CN(C6COC6)CC5C4)o3)n2C)c(-c2cc(F)c3c(c2C)CCCO3)c1[C@H](OC(C)(C)C)C(=O)O (stereo partly drawn) | 46
Cc1nc2c(cc(-c3ccnc(C(=O)Nc4ccnn4C)c3)n2C)c(-c2cc(F)c3c(c2C)CCCO3)c1[C@H](OC(C)(C)C)C(=O)O (atropisomer, axis not shown) | 40.1

Data request: Please tell me: IC50 of Cc1nc2c(cc(-c3ccnc(C(=O)NCc4ccc(F)cc4)c3)n2C)c(-c2cc(F)c3c(c2C)CCCO3)c1[C@H](OC(C)(C)C)C(=O)O (atropisomer, axis not shown) , system HIV?
Data returned: 43.6

Data request: Again, but for Cc1nc2c(cc(C(=O)N(C)C3CCCCC3)n2C)c(-c2cc(F)c3c(c2C)CCCO3)c1[C@H](OC(C)(C)C)C(=O)O
Data returned: 34.5

Data request: Again, but for Cc1nc2c(cc(C(=O)C(=O)NCc3ccccc3)n2C)c(-c2cc(F)c3c(c2C)CCCO3)c1[C@H](OC(C)(C)C)C(=O)O (atropisomer, axis not shown; (M))
Data returned: 94.6
